Untreated fluorescence listing for selected substances.
# measurementDescription: Retention of peptides in V-bottomed polypropylene wells
# Format: physicochemical
# particulars: V-bottom wells; 500V scan; unwashed
Ends that are not written are not given here.

Here is how some substances turned out for Untreated fluorescence.
| substance | propertyLabel | reportedResult |
| --- | --- | --- |
| N-TAMRA-Asp-Phe- Asp-Phe-Asp-Phe- Asp-C ({TAMRA}-DFDFDFD) [Peptide 2DOS-14] | Untreated fluorescence | 7,641,246 |
| N-TAMRA-Asp-Phe- Ala-Phe-Ser-Phe- Lys-C ({TAMRA}-DFAFSFK) [Peptide 2DOS-6] | Untreated fluorescence | 9,141,290 |
| N-TAMRA-Phe-Asp- Phe-Ala-Phe-Ser- Phe-Lys-Phe-C ({TAMRA}-FDFAFSFKF) [Peptide 2DOS-2] | Untreated fluorescence | 9,495,183 |

Return Untreated fluorescence for the following substance: N-TAMRA-Asp-Ser- Ala-Ser-Ser-Ser- Lys-C ({TAMRA}-DSASSSK) [Peptide 2DOS-7]
8,674,544

Return Untreated fluorescence for the following substance: N-TAMRA-Asp-Ser- Asp-Ser-Asp-Ser- Asp-C ({TAMRA}-DSDSDSD) [Peptide 2DOS-15]
10,493,100

Return Untreated fluorescence for the following substance: N-TAMPA-Asp-Asp- Asp-Ala-Asp-Ser- Asp-Lys-Asp-C ({TAMRA}-DDDADSDKD) [Peptide 2DOS-4]
8,265,596

Return Untreated fluorescence for the following substance: N-TAMPA-Asp-Asp- Asp-Asp-Asp-Asp- Asp-Asp-Asp-C ({TAMRA}-DDDDDDDDD) [Peptide 2DOS-12]
6,777,661
